MEASUREMENT_PROTOCOL: Oral bioavailability in Sprague-Dawley rat at 10 mg/kg measured for 24 hrs by LC-MS/MS analysis
Type: ADME, organism-based
CONDITION_SUMMARY: in vivo
MEASUREMENT_NAME: bioavailability (%)
Numeric answer only, unit % assumed.

Ask: What does the data say about its bioavailability? Entry: `Cc1nc2cnc3ccc(-c4cnc5[nH]ccc5c4)cc3c2n1-c1ccc(C(C)(C)C#N)nc1`
Reply: 76.8

----------
TEST_SYSTEM: Phosphatidylinositol 4,5-bisphosphate 3-kinase catalytic subunit delta isoform (Homo sapiens)
Sequence (O00329 whole entry, canonical isoform): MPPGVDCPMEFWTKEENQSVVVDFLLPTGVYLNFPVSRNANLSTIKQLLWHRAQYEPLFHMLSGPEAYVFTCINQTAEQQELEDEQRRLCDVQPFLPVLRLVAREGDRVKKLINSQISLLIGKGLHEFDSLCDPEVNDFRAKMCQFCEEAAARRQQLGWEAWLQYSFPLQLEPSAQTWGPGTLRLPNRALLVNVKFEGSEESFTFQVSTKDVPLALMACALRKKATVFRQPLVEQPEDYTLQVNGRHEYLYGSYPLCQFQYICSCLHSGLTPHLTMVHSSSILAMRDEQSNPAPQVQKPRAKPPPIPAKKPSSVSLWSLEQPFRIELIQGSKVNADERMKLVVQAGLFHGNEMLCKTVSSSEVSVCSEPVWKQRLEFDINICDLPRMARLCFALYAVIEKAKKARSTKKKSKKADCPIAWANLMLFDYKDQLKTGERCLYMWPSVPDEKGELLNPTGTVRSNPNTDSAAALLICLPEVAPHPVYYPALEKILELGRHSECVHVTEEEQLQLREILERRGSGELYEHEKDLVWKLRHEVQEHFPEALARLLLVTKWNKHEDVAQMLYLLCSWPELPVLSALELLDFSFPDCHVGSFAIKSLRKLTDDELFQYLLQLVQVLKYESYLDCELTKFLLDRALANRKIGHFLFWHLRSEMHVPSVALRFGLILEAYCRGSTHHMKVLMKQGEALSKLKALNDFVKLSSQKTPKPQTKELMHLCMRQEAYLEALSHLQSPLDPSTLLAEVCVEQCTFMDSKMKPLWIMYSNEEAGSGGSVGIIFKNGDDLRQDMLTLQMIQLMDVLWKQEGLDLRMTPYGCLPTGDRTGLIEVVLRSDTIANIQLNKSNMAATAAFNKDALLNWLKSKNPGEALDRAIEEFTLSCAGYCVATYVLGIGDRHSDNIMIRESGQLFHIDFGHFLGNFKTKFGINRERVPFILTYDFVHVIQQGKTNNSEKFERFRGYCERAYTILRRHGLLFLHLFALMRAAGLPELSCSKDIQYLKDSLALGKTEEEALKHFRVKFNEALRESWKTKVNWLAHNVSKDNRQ
MEASUREMENT_PROTOCOL: Inhibition of PI3Kdelta (unknown origin) using PIP2 as substrate incubated for 2 hrs in presence of ATP by Kinase Glo luminescence assay
IC50 under 60 nM gets fulfilled, anything at or over 60 nM gets not fulfilled.

Ask: Record `COc1ccc(-c2ccc3ncc4nc(C)n(-c5ccc(F)cc5)c4c3c2)cc1` : is its IC50 strictly below 60 nM?
Reply: not fulfilled

Ask: Record `CC(=O)c1ccc(-c2ccc3ncc4nc(C)n(-c5ccc(F)cc5)c4c3c2)cc1` : is its IC50 strictly below 60 nM?
Reply: not fulfilled

Ask: Record `Cc1nc2cnc3ccc(-c4ccc(C(F)(F)F)cc4)cc3c2n1-c1ccc(F)cc1` : is its IC50 strictly below 60 nM?
Reply: not fulfilled

Ask: Record `Cc1nc2cnc3ccc(-c4cnc5[nH]ccc5c4)cc3c2n1C` : is its IC50 strictly below 60 nM?
Reply: not fulfilled

Ask: Record `Cc1nc2cnc3ccc(-c4ccc(F)cc4)cc3c2n1-c1ccc(F)cc1` : is its IC50 strictly below 60 nM?
Reply: not fulfilled

Ask: Record `Cc1nc2cnc3ccc(-c4cnc(N5CCOCC5)nc4)cc3c2n1-c1ccc(F)cc1` : is its IC50 strictly below 60 nM?
Reply: not fulfilled

Ask: Record `Cc1nc2cnc3ccc(-c4cc(C(F)(F)F)cc(C(F)(F)F)c4)cc3c2n1-c1ccc(F)cc1` : is its IC50 strictly below 60 nM?
Reply: not fulfilled

Ask: Record `Cc1nc2cnc3ccc(-c4cnn(C)c4)cc3c2n1-c1ccc(F)cc1` : is its IC50 strictly below 60 nM?
Reply: not fulfilled

Ask: Record `Cc1nc2cnc3ccc(-c4ccc(Cl)cc4)cc3c2n1-c1ccc(F)cc1` : is its IC50 strictly below 60 nM?
Reply: not fulfilled

Ask: Record `Cc1nc2cnc3ccc(-c4cnc5[nH]ccc5c4)cc3c2n1-c1ccc(C(F)(F)F)nc1` : is its IC50 strictly below 60 nM?
Reply: not fulfilled

Ask: Record `Cc1nc2cnc3ccc(-c4cnc5[nH]ccc5c4)cc3c2n1[C@H](C)c1ccc(F)cc1` : is its IC50 strictly below 60 nM?
Reply: not fulfilled

Ask: Record `Cc1nc2cnc3ccc(-c4ccc(N)cc4)cc3c2n1-c1ccc(F)cc1` : is its IC50 strictly below 60 nM?
Reply: not fulfilled

Ask: Record `Cc1nc2cnc3ccc(-c4cnc5ccccc5c4)cc3c2n1-c1ccc(F)cc1` : is its IC50 strictly below 60 nM?
Reply: fulfilled

Ask: Record `Cc1nc2cnc3ccc(-c4cnc(N)nc4)cc3c2n1-c1ccc(F)cc1` : is its IC50 strictly below 60 nM?
Reply: fulfilled

Ask: Record `Cc1nc2cnc3ccc(-c4cnc5[nH]ccc5c4)cc3c2n1[C@@H](C)c1ccc(F)cc1` : is its IC50 strictly below 60 nM?
Reply: not fulfilled

Ask: Record `Cc1nc2cnc3ccc(-c4ccc(N)nc4)cc3c2n1-c1ccc(F)cc1` : is its IC50 strictly below 60 nM?
Reply: fulfilled

Ask: Record `Cc1nc2cnc3ccc(-c4cnc5[nH]ccc5c4)cc3c2n1-c1ccc(C(F)(F)F)cc1` : is its IC50 strictly below 60 nM?
Reply: not fulfilled

Ask: Record `Cc1noc(C)c1-c1ccc2ncc3nc(C)n(-c4ccc(F)cc4)c3c2c1` : is its IC50 strictly below 60 nM?
Reply: not fulfilled

Ask: Record `COC(=O)c1ccc(-c2ccc3ncc4nc(C)n(-c5ccc(F)cc5)c4c3c2)cc1` : is its IC50 strictly below 60 nM?
Reply: not fulfilled

Ask: Record `Cc1nc2cnc3ccc(-c4cnc5[nH]ccc5c4)cc3c2n1-c1ccc(C(C)(C)C#N)cc1` : is its IC50 strictly below 60 nM?
Reply: fulfilled

Ask: Record `Cc1nc2cnc3ccc(-c4cnc5[nH]ccc5c4)cc3c2n1-c1ccc(F)nc1` : is its IC50 strictly below 60 nM?
Reply: fulfilled
